assay: Cytotoxicity was measured as ratio of its IC50 value to that of compound 13a; format: functional
Measured Parameter: Ratio
When you answer, write just the number.

-- ask Param item = CC(=O)O[C@@]12CO[C@@H]1C[C@H](OC(=O)CN)[C@@]1(C)C(=O)[C@H](OC(=O)CN)C3=C(C)[C@@H](OC(=O)C(O)C(NC(=O)OC(C)(C)C)c4ccccc4)C[C@@](O)([C@@H](OC(=O)c4ccccc4)[C@H]21)C3(C)C (some centres undefined) ; retrieve measured Ratio.
-- reply 1.5

-- ask Param item = CC(=O)O[C@H]1C(=O)[C@@]2(C)[C@H]([C@H](OC(=O)c3ccccc3)[C@]3(O)C[C@H](OC(=O)[C@H](NC(=O)c4ccccc4)[C@@H](O)c4ccccc4)C(C)=C1C3(C)C)[C@]1(OC(C)=O)CO[C@@H]1C[C@@H]2O ; retrieve measured Ratio.
-- reply 46

-- ask Param item = CC(=O)O[C@@]12CO[C@@H]1C[C@H](O)[C@@]1(C)C(=O)[C@H](O)C3=C(C)[C@@H](OC(=O)[C@H](O)[C@@H](NC(=O)OC(C)(C)C)c4ccccc4)C[C@@](O)([C@@H](OC(=O)c4ccccc4)[C@H]21)C3(C)C.O.O.O [DOCETAXEL] ; retrieve measured Ratio.
-- reply 1

Every entry's value here was drawn from ChEMBL document CHEMBL1125650.
